Molecular target: rat Serotonin, 5-Hydroxytryptamine Receptor 1 (5HT1), Non-Selective Binding, Htr1a (gene 24473) (UniProt P19327)
Sequence (P19327 whole entry, looked up): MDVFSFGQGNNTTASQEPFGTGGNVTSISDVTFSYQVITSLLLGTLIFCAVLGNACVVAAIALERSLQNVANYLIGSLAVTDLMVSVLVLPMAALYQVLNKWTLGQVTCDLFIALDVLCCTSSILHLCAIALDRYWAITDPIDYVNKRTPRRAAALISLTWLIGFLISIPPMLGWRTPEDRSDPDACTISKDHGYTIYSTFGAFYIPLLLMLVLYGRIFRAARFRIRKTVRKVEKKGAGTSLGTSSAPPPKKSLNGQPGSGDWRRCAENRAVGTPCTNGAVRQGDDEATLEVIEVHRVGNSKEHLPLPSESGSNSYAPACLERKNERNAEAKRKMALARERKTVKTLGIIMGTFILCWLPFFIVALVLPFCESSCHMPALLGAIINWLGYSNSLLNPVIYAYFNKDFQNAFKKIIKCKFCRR
Test: NVS_GPCR_r5HT1_NonSelective: NovaScreen (NVS) G Protein-Coupled Receptor Assay for rat Serotonin, 5-Hydroxytryptamine Receptor 1 (5HT1), Non-Selective Binding (AID 2283286)
Description: NVS_GPCR_r5HT1_NonSelective is a biochemical, single-readout assay that uses extracted gene-proteins from Rat cortical membranes in a tissue-based cell-free assay. Measurements were taken 1 hour after chemical dosing in a 48-well plate.NVS_GPCR_r5HT1_NonSelective is one of one assay component(s) measured or calculated from the NVS_GPCR_r5HT1_NonSelective assay. […] Furthermore, this assay endpoint can be referred to as a primary readout, because the performed assay has only produced 1 assay endpoint. […]
Records with an inconclusive call do not appear. Calls of active or inactive are those of the source. The calls were made as follows: active = hit-call score of the fitted dose curve at least 0.9, where 1 is the maximum; inconclusive = response in the unintended direction; inactive = score below 0.9.
TEST READOUT: AC50

- Nc1nc(=S)c2[nH]cnc2[nH]1: inactive
- O=C(O)c1[nH]n(-c2ccc(S(=O)(=O)O)cc2)c(=O)c1N=Nc1ccc(S(=O)(=O)O)cc1: 5.69 µM (active)
- Cn1cnc2c1c(=O)[nH]c(=O)n2C: inactive
- CC(C)(C)c1ccccc1: inactive

* * *

experiment: CCTE_Harrill_HTTr_Apoptosis_DMEM_6hr: (Pilot) CCTE's 6-hour Apoptosis Assessment for the High-Throughput Transcriptomics (HTTr) Platform, in MCF-7 cells cultured in DMEM + 10% fetal bovine serum, Harrill Lab (AID 2283981)
Active and inactive are the calls of the source. Rule for the calls: active = hit-call score of the fitted dose curve at least 0.9, where 1 is the maximum; inactive = score below 0.9.
Outcome codes: active, inactive

• CCN(CC)CCOc1ccc(C(=C(Cl)c2ccccc2)c2ccccc2)cc1 = active
• CC(C)OC(=O)C(C)(C)Oc1ccc(C(=O)c2ccc(Cl)cc2)cc1 = inactive
• Nc1nc(Cl)nc2c1ncn2[C@H]1C[C@H](O)[C@@H](CO)O1 = inactive
• COC(=O)[C@H]1[C@H]2C[C@@H]3c4[nH]c5cc(OC)ccc5c4CCN3C[C@H]2C[C@@H](OC(=O)c2cc(OC)c(OC)c(OC)c2)[C@@H]1OC = inactive

* * *

read-out: Interleukin-1 alpha (IL1a), IL1A (gene 3552); test: BSK_KF3CT_IL1a: BioMAP Diversity Plus: KF3CT Assay for Interleukin-1 alpha (IL1a) Biomarker Activity (AID 2283070); settings: primary human keratinocytes with fibroblasts; actives raise or lower the signal
Calls of active or inactive are those of the source. How the source made its calls: active means hit-call score of the fitted dose curve at least 0.9, where 1 is the maximum; inactive means score below 0.9.
Outcome codes: active, inactive

* CCCCc1nc2cccnc2n1Cc1ccc(-c2ccccc2-c2nnn[nH]2)cc1 | inactive
* Cc1ccc(C(C)(C)C)c(O)c1 | inactive
* Oc1ccc(O)cc1 | inactive
* Nc1nc(=S)c2[nH]cnc2[nH]1 | inactive
* CC(C)c1cccc(C(C)C)c1NC(=O)NS(=O)(=O)c1cc(C(C)(C)O)co1 | inactive
* NC(=Nc1ccccc1)Nc1ccccc1 | inactive
* O=C1c2c(O)cccc2Cc2cccc(O)c21 | active
* Nc1nc(Cl)nc2c1ncn2[C@H]1C[C@H](O)[C@@H](CO)O1 | inactive
* CCCCC(CC)COP(=O)(OCC(CC)CCCC)OCC(CC)CCCC (stereo not drawn) | inactive
* Cc1ccc(-c2cc(C(F)(F)F)nn2-c2ccc(S(N)(=O)=O)cc2)cc1 | inactive
* C=CCc1ccc(OC)c(OC)c1 | inactive
* CCCCCCC(CCCCCCCCCCC(=O)OCC(COC(C)=O)OC(C)=O)OC(C)=O (stereo not drawn) | inactive
* NC1CCCCC1 | inactive
* O=C(Oc1ccccc1)c1cccc(C(=O)Oc2ccccc2)c1 | inactive
* CCc1cc(C2=C(C(=O)O)N(c3ccccc3C(F)(F)F)S(=O)(=O)c3ccccc32)cc2c1OCO2 | inactive
* CS(=O)(=O)c1ccc([C@@H](C[C@H]2CCC(=O)C2)C(=O)Nc2cnccn2)cc1Cl | inactive
* O=C(O)CC(O)(CC(=O)O)C(=O)O | inactive
* CCCCOC(=O)CCCCC(=O)OCCCC | inactive
